Test system: A549 cells
Assay: In vitro cytotoxicity, crystal violet staining
Assay type: cell-based
Details: Homo sapiens, BBR, 72 h exposure
Measure Name: IC50 (µM)
Return type: number; implicit unit µM.

Item COc1ccc2cc3[n+](cc2c1OC)CCc1cc2c(cc1-3)OCO2.[Cl-] [BBR free drug] has what recorded IC50?
6.45

----------
Assay: In vitro Caco-2 permeability study
Details: human, Caco-2, pH 5.8
Measure Name: Papp A→B at 120 min, 100 µM

Reported Papp A→B at 120 min, 100 µM for COc1ccc2cc3[n+](cc2c1OC)CCc1cc2c(cc1-3)OCO2.[Cl-] [BBR free drug] : what is it?
~0.29 ×10⁻⁶ cm/s

----------
Assay: Oral pharmacokinetic study
Assay type: in vivo, Sprague Dawley rats
Details: Sprague Dawley, rat, plasma, po; BA; 100 mg/kg orally
Method: Rats were fasted overnight before the start of the experiments and randomly divided into two experimental groups. […] Pharmacokinetic parameters were analyzed using non-compartmental techniques with WinNonlin® 5.0 software (Pharsight Corporation, Mountain View, CA, USA). […] The AUC was calculated for each rat using the piecewise log trapezoidal areas and extrapolated to infinity by dividing λz into the last measured plasma concentration (i.e. Clast/λz). […]
Measure Name: AUC(0-inf)
Please state the value followed by its unit.

Give its AUC(0-inf) value. Item: C=C(C)[C@@H]1CC[C@]2(C(=O)O)CC[C@]3(C)[C@H](CC[C@@H]4[C@@]5(C)CC[C@H](O)C(C)(C)[C@@H]5CC[C@]43C)[C@@H]12 [BA free drug, 3β, hydroxy-lup-20(29)-en-28-oic acid]
7260 ng·h/mL

----------
Assay: Oral pharmacokinetic study
Assay type: in vivo, Sprague Dawley rats
Settings: Sprague Dawley, rat, plasma, po; 100 mg/kg orally
Form field: MRT (one value per entry).
Hi! Could you send only the number? It should be in h, unit omitted.

Compound	Measure Name	Scale Unit	Observed Measurement
COc1ccc2cc3[n+](cc2c1OC)CCc1cc2c(cc1-3)OCO2.[Cl-] [BBR free drug]	MRT	h	6.85

Consider the record given below.
For the compound C=C(C)[C@@H]1CC[C@]2(C(=O)O)CC[C@]3(C)[C@H](CC[C@@H]4[C@@]5(C)CC[C@H](O)C(C)(C)[C@@H]5CC[C@]43C)[C@@H]12 [BA free drug, 3β, hydroxy-lup-20(29)-en-28-oic acid] , what MRT is on record?
15.1

----------
Assay: Oral pharmacokinetic study
Type: in vivo, Sprague Dawley rats
Conditions: Sprague Dawley, rat, plasma, po, 100 mg/kg; read-out: t½ (converted)
Procedure: Rats were fasted overnight before the start of the experiments and randomly divided into two experimental groups. […] Pharmacokinetic parameters were analyzed using non-compartmental techniques with WinNonlin® 5.0 software (Pharsight Corporation, Mountain View, CA, USA). […] The AUC was calculated for each rat using the piecewise log trapezoidal areas and extrapolated to infinity by dividing λz into the last measured plasma concentration (i.e. Clast/λz). […]
Form field: half-life (one value per entry).
Provide only the numeric value, understood in h.

Molecule	Scale Unit	Observed Measurement
COc1ccc2cc3[n+](cc2c1OC)CCc1cc2c(cc1-3)OCO2.[Cl-] [BBR free drug]	h	5.95

Next item in the queue.
Query: half-life; subject: C=C(C)[C@@H]1CC[C@]2(C(=O)O)CC[C@]3(C)[C@H](CC[C@@H]4[C@@]5(C)CC[C@H](O)C(C)(C)[C@@H]5CC[C@]43C)[C@@H]12 [BA free drug, 3β, hydroxy-lup-20(29)-en-28-oic acid]
12.3
